# MEASUREMENT PROTOCOL: in vitro
# Assay type: cell-based
# EXPERIMENTAL SETUP: human
TEST READOUT: viability at 9 µM

COc1ccc(-c2cc(=O)c3c(OC)c(OC)c(OC)c(OC)c3o2)cc1OC [nobiletin] | > 90%

###

# TARGET OR SYSTEM: recombinant human ABCB1 membranes (P-gp ATPase) (Homo sapiens, UniProt P08183)
# Sequence (P08183 whole entry): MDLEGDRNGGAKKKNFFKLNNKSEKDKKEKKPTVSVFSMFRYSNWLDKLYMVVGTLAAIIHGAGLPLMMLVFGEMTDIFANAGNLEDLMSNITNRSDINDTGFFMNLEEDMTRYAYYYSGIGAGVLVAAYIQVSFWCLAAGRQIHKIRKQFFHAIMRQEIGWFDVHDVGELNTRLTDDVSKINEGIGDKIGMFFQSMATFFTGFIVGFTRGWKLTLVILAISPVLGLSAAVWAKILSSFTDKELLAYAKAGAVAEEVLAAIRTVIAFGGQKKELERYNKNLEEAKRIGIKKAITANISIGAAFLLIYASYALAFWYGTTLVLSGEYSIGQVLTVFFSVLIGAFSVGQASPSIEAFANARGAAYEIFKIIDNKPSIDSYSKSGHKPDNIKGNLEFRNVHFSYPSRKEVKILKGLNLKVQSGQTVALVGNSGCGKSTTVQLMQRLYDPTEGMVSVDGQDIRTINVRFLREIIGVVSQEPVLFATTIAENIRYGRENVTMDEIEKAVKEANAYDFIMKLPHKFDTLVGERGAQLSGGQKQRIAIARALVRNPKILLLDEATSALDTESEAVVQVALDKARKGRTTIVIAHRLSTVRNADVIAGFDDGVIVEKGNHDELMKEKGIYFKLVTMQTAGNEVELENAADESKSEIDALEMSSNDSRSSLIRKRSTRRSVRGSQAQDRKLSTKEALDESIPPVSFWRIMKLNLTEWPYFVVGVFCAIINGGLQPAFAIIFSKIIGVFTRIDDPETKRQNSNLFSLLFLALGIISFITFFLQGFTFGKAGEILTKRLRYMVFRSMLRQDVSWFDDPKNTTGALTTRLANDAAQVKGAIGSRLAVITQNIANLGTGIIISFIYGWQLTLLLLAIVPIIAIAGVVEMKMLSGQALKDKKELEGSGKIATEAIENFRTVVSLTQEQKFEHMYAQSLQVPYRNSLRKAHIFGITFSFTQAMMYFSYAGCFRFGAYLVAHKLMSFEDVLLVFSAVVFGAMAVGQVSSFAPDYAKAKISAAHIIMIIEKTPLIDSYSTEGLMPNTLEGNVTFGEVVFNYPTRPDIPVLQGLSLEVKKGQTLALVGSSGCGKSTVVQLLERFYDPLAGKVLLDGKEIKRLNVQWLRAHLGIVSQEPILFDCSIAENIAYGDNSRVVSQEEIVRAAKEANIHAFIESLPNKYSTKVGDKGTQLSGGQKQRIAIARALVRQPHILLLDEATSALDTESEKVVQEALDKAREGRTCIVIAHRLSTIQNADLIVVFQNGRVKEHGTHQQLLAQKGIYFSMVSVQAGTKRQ
# MEASUREMENT PROTOCOL: ABCB1 ATPase activity assay (PgpGlo)
# Description: Sodium orthovanadate (Na3VO4) was used as an ABCB1 ATPase inhibitor. […] Luminescence was initiated by ATP detection buffer. The plate (white opaque 96-well, corning, USA) was further incubated at room temperature for […] to develop luminescent signal, and was read with luminometer (infinite M200 PRO, TECAN, Switzerland).
TEST READOUT: IC50 (µM)

COc1ccc(-c2cc(=O)c3c(OC)c(OC)c(OC)c(OC)c3o2)cc1OC | 7.17
